Origin of the recorded values: patent US6855504B2

Rat (oral LD50 mg/ml): recorded values
Tested on: Rat
Type: in vivo
Run conditions: rat, oral
Give the number; mg/mL is assumed, so skip it.

O.O.O.O.O.O.O.O.O.O.[Na+].[Na+].[O-]B1OB2OB([O-])OB(O1)O2 [sodium borate]
2660

INPUT: Please look at this compound and report its Rat (oral LD50 mg/ml): Nc1ccccc1N [phenylenediamine]
OUTPUT: 510

INPUT: Please look at this compound and report its Rat (oral LD50 mg/ml): [Cl-].[Li+] [lithium chloride]
OUTPUT: 526

INPUT: Please look at this compound and report its Rat (oral LD50 mg/ml): CN(C)c1ccncc1 [4-dimethyl aminopyridine]
OUTPUT: 250

INPUT: Please look at this compound and report its Rat (oral LD50 mg/ml): [N-]=[N+]=[N-] [sodium azide]
OUTPUT: 27

INPUT: Please look at this compound and report its Rat (oral LD50 mg/ml): COP(=O)(OC)C(O)C(Cl)(Cl)Cl (centres unmarked) [metrifonate]
OUTPUT: 560

INPUT: Please look at this compound and report its Rat (oral LD50 mg/ml): [Cl][Cd][Cl] [cadmium chloride]
OUTPUT: 88

INPUT: Please look at this compound and report its Rat (oral LD50 mg/ml): N[C@@H](Cc1ccc(O)c(O)c1)C(=O)O [L-dopa]
OUTPUT: 1780

###

System: Mouse
Assay type: in vivo
Run conditions: mouse, oral
Measured endpoint: Mouse (oral LD50 mg/ml) (mg/mL)
Give the number; mg/mL is assumed, so skip it.

N[C@@H](Cc1ccc(O)c(O)c1)C(=O)O
2363

Let us move to another entry and its Mouse (oral LD50 mg/ml).
INPUT: Please look at this molecule and report its Mouse (oral LD50 mg/ml): COP(=O)(OC)C(O)C(Cl)(Cl)Cl (stereo not shown) [metrifonate]
OUTPUT: 300

###

Tested on: Fly
Format: in vivo
Run conditions: fly, oral, chemical in fly media
Measured endpoint: Fly (oral LD50 mg/ml)

[Cl][Cd][Cl] [cadmium chloride]
.1 mg/mL
N[C@@H](Cc1ccc(O)c(O)c1)C(=O)O [L-dopa]
.7 mg/mL
CN(C)c1ccncc1 [4-dimethyl aminopyridine]
.15 mg/mL
COP(=O)(OC)C(O)C(Cl)(Cl)Cl (stereo not drawn) [metrifonate]
.04 mg/mL
[Cl-].[Li+] [lithium chloride]
.4 mg/mL

INPUT: Please look at this molecule and report its Fly (oral LD50 mg/ml): [N-]=[N+]=[N-] [sodium azide]
OUTPUT: .05 mg/mL

INPUT: Please look at this molecule and report its Fly (oral LD50 mg/ml): Nc1ccccc1N [phenylenediamine]
OUTPUT: .2 mg/mL

INPUT: Please look at this molecule and report its Fly (oral LD50 mg/ml): O.O.O.O.O.O.O.O.O.O.[Na+].[Na+].[O-]B1OB2OB([O-])OB(O1)O2 [sodium borate]
OUTPUT: 6.5 mg/mL

INPUT: Please look at this molecule and report its Fly (oral LD50 mg/ml): O=S1(=O)OC(c2cc(Br)c(O)c(Br)c2)(c2cc(Br)c(O)c(Br)c2)c2ccccc21 [bromophenol blue]
OUTPUT: 10 mg/mL

###

System: Mouse
Assay type: in vivo
Run conditions: mouse, oral
Measured endpoint: Mouse (oral LD50 mg/ml)

[Cl][Cd][Cl] [cadmium chloride]
60 mg/mL
O.O.O.O.O.O.O.O.O.O.[Na+].[Na+].[O-]B1OB2OB([O-])OB(O1)O2 [sodium borate]
2000 mg/mL
Nc1ccccc1N
366 mg/mL

INPUT: Please look at this compound and report its Mouse (oral LD50 mg/ml): [Cl-].[Li+] [lithium chloride]
OUTPUT: 1165 mg/mL

INPUT: Please look at this compound and report its Mouse (oral LD50 mg/ml): [N-]=[N+]=[N-] [sodium azide]
OUTPUT: 27 mg/mL
